- test system: High affinity nerve growth factor receptor (Homo sapiens, UniProt P04629); also: in the data inactive means no Kd found up to 30 µM
- Sequence (P04629 whole entry): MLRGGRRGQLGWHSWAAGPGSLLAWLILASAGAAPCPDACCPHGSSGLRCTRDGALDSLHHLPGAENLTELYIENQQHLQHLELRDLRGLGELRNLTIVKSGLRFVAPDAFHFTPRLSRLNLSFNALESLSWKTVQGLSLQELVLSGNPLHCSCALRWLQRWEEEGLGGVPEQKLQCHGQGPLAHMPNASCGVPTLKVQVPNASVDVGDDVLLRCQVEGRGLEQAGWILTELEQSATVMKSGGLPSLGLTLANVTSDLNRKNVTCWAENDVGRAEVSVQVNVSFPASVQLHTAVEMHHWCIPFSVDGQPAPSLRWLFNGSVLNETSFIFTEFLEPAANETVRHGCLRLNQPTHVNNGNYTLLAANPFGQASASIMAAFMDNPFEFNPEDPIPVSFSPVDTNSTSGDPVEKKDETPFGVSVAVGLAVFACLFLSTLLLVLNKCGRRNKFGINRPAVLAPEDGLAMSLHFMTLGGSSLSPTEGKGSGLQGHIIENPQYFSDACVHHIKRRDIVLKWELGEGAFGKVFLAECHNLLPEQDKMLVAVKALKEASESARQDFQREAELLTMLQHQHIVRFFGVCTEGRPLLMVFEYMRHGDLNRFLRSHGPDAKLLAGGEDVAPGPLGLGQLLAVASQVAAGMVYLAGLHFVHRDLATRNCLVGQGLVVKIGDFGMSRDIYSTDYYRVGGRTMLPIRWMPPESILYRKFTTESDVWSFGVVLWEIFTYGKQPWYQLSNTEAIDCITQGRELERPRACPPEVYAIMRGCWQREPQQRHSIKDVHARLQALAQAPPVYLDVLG
The source made the active and inactive calls.
Your response should consist of one outcome taken from true (1) for active, false (0) for inactive

Problem: Status in this test for COc1cc2ncnc(Nc3ccc(O)cc3)c2cc1OC ?
Result: false (0)

Problem: Status in this test for COCCN1CCN(Cc2ccc(-c3n[nH]c4c3C(=O)c3c(NC(=O)NN5CCOCC5)cccc3-4)cc2)CC1 ?
Result: false (0)

Problem: Status in this test for O=C(NOC[C@H](O)CO)c1ccc(F)c(F)c1Nc1ccc(I)cc1F ?
Result: false (0)

Problem: Status in this test for O=S(=O)(c1cccc2c(O)nccc12)N1CCCNCC1 [HYDROXYFASUDIL] ?
Result: false (0)

Problem: Status in this test for NC(=O)c1ccc(N(C(N)=O)c2c(F)cccc2F)nc1-c1ccc(F)cc1F ?
Result: false (0)

###

- test system: Mitogen-activated protein kinase kinase kinase kinase 1 (Homo sapiens, UniProt Q92918); also: in the data inactive means no Kd found up to 30 µM
- Sequence (Q92918 whole entry): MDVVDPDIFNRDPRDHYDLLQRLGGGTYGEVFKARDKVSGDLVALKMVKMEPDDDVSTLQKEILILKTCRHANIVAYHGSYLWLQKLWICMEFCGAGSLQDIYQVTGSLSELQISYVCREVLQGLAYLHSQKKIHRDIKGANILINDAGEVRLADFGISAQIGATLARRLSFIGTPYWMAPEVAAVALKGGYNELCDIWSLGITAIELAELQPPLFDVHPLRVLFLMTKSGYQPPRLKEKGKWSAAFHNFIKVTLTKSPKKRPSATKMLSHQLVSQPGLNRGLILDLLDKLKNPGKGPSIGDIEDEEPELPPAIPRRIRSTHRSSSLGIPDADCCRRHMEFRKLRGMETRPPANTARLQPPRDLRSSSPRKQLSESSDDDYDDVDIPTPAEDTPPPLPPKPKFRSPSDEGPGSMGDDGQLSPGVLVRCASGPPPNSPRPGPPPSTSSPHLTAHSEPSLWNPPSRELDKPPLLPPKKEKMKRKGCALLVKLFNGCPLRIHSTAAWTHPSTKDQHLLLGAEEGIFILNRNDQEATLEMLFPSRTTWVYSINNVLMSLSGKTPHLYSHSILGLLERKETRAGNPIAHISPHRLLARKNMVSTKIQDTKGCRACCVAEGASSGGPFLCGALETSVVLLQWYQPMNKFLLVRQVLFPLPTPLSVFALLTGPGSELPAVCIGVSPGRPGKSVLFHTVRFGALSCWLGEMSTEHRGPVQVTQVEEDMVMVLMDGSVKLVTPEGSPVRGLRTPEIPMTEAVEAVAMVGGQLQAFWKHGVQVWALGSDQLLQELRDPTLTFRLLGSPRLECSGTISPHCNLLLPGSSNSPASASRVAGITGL
Activity calls are given as the source filed them.
Your response should consist of one outcome taken from true = active, false = inactive

Please review the entries below; each comes with its answer.
CCN1CCN(Cc2ccc(Nc3ncc(F)c(-c4cc(F)c5nc(C)n(C(C)C)c5c4)n3)nc2)CC1 [ABEMACICLIB]: false
NC(=O)c1ccc(N(C(N)=O)c2c(F)cccc2F)nc1-c1ccc(F)cc1F [VX-702]: false
COc1ccc2c(OCc3nnc4ccc(-c5ccccc5)nn34)ccnc2c1 [AMG-208]: false
COc1cccc2cc(-c3nc([C@H]4CC[C@H](C(=O)O)CC4)n4ncnc(N)c34)[nH]c12 [OSI-027]: false
O=C(O)c1ccc2c(c1)nc(Nc1cccc(Cl)c1)c1ccncc12 [SILMITASERTIB]: false

Problem: Status in this test for O=c1[nH]c([C@@H]2CCCN2)nc2c1oc1ccc(Cl)cc12 ?
Result: false

Problem: Status in this test for Cc1cc(C(=O)Nc2cc(Oc3ccc4nc(NC(=O)C5CC5)cn4n3)ccc2C)n(C)n1 [TAK-593] ?
Result: false

Problem: Status in this test for CNC(=O)c1ccc(Nc2ncc(C(F)(F)F)c(NCc3nccnc3N(C)S(C)(=O)=O)n2)cc1 [DEFACTINIB] ?
Result: true

Problem: Status in this test for O[C@H]1CC[C@H](Nc2ncc3nc(Nc4c(F)cc(F)cc4F)n([C@H]4CCOC4)c3n2)CC1 [TANZISERTIB] ?
Result: false

###

Record: Kd reported on STE20-related kinase adapter protein alpha (Homo sapiens, UniProt Q7RTN6).
Sequence (Q7RTN6 whole entry): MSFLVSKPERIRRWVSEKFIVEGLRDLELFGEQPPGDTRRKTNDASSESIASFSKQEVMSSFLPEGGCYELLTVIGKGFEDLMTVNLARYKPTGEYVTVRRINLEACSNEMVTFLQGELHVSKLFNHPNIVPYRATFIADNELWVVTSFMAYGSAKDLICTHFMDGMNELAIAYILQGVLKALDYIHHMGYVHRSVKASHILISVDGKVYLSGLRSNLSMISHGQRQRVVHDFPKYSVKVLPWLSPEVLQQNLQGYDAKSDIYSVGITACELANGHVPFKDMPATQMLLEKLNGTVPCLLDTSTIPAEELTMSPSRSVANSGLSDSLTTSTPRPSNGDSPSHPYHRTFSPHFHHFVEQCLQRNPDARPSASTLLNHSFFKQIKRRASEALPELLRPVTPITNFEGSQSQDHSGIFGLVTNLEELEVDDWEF
Calls of active or inactive are those of the source.

COc1ccc(-c2ccc3ncc4c(c3c2)n(-c2ccc(N3CCNCC3)c(C(F)(F)F)c2)c(=O)n4C)cn1 [BGT-226 FREE BASE]: > 30 µM (inactive)
C=CCN(/C=C1/C(=O)O[C@H](COC)[C@@]2(C)C1=C(O)C(=O)C1=C2[C@H](OC(C)=O)C[C@]2(C)C(=O)CC[C@@H]12)CC=C: > 30 µM (inactive)
CC(C)(O)CC(=O)NCCn1ccc2ncnc(Nc3ccc(Oc4cccc(C(F)(F)F)c4)c(Cl)c3)c21: > 30 µM (inactive)

Quick batch: Kd for everything below.
1. CNC(=O)c1cc(COc2nnc(Nc3ccc(Cl)cc3)c3ccoc23)ccn1
2. NC(=O)c1ccc(N(C(N)=O)c2c(F)cccc2F)nc1-c1ccc(F)cc1F

Result:
1. > 30 µM (inactive)
2. > 30 µM (inactive)

Quick batch: Kd for everything below.
1. CN(c1ncccc1CNc1nc(Nc2ccc3c(c2)CC(=O)N3)ncc1C(F)(F)F)S(C)(=O)=O
2. O=c1[nH]c([C@@H]2CCCN2)nc2c1oc1ccc(Cl)cc12

Result:
> 30 µM (inactive)
> 30 µM (inactive)

Quick batch: Kd for everything below.
1. O=C(O)c1ccc2c(c1)nc(Nc1cccc(Cl)c1)c1ccncc12
2. S=C(NCc1ccc2c(c1)OCO2)N1CCN(c2ncnc3c2oc2ccccc23)CC1
3. O=C(NC[C@H](O)CO)c1ccncc1Nc1ccc(I)cc1F
4. CC(C)CC(=O)Nc1[nH]nc2c1CN(C(=O)C1CCN(C)CC1)C2(C)C
5. COc1cc(Nc2ncc(F)c(Nc3ccc4c(n3)N(COP(=O)(O)O)C(=O)C(C)(C)O4)n2)cc(OC)c1OC

Result:
1: > 30 µM (inactive); 2: > 30 µM (inactive); 3: > 30 µM (inactive); 4: > 30 µM (inactive); 5: > 30 µM (inactive)

Quick batch: Kd for everything below.
1. FC(F)(F)c1ccc(CNc2ccc(Cc3c[nH]c4ncc(Cl)cc34)cn2)cn1
2. c1cc(OCCN2CCCCC2)cc(-c2n[nH]c3ccc(-c4nc[nH]n4)cc23)c1
3. O=C(Nc1ccc(OC(F)(F)F)cc1)c1sccc1NCc1ccnc2ccccc12
4. COc1cc2c(Oc3ccc4[nH]c(C)cc4c3F)ncnc2cc1OCCCN1CCCC1
5. C[C@@]1(C(=O)Nc2ccc(F)nc2)CCCN1c1nc(Nc2cc(C3CC3)n[nH]2)c2cccn2n1
6. Cc1c(Cn2c(C)nc3c(C(=O)O)cc(N4CCOCC4)cc32)cccc1C(F)(F)F
7. CN(C)C/C=C/C(=O)Nc1cc2c(Nc3ccc(F)c(Cl)c3)ncnc2cc1O[C@H]1CCOC1
8. C=CC(=O)Nc1cc(Nc2nccc(-c3cn(C)c4ccccc34)n2)c(OC)cc1N(C)CCN(C)C

Result:
> 30 µM (inactive)
> 30 µM (inactive)
> 30 µM (inactive)
> 30 µM (inactive)
> 30 µM (inactive)
> 30 µM (inactive)
> 30 µM (inactive)
> 30 µM (inactive)

###

- test system: Serine/threonine-protein kinase Nek2 (Homo sapiens, UniProt P51955); also: in the data inactive means no Kd found up to 30 µM
- Sequence (P51955 whole entry): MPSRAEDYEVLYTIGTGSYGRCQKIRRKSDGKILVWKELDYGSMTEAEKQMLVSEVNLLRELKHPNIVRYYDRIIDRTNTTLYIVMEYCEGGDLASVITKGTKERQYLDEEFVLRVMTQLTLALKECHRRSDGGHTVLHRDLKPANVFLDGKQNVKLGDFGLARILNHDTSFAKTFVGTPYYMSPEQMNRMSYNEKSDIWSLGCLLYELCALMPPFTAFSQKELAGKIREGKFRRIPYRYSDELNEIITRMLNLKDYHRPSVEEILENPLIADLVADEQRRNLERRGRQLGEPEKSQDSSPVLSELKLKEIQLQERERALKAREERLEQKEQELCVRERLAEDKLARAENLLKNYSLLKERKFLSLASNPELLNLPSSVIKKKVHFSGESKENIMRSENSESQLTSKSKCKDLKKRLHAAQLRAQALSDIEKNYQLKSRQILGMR
The source made the active and inactive calls.
Record form. Attribute: Kd. Fill in for each entry.

# annotated cases, reported Kd shown
COc1cccc(Nc2ncnn3ccc(CN4CC[C@@H](N)[C@H](O)C4)c23)c1: > 30 µM (inactive)
Cc1cc(C(=O)Nc2cc(Oc3ccc4nc(NC(=O)C5CC5)cn4n3)ccc2C)n(C)n1: > 30 µM (inactive)

# evaluate next
Problem: Recall the reported Kd of Cc1ccc(C(=O)Nc2ccc(Oc3cc4cnn(C)c4cc3-c3cn[nH]c3)c(F)c2)c(=O)n1-c1ccc(F)cc1 on Serine/threonine-protein kinase Nek2 (Homo sapiens, UniProt P51955) and write it down.
Result: > 30 µM (inactive)

###

- test system: Epidermal growth factor receptor (Homo sapiens, UniProt P00533); also: in the data inactive means no Kd found up to 30 µM
- Sequence (P00533 whole entry): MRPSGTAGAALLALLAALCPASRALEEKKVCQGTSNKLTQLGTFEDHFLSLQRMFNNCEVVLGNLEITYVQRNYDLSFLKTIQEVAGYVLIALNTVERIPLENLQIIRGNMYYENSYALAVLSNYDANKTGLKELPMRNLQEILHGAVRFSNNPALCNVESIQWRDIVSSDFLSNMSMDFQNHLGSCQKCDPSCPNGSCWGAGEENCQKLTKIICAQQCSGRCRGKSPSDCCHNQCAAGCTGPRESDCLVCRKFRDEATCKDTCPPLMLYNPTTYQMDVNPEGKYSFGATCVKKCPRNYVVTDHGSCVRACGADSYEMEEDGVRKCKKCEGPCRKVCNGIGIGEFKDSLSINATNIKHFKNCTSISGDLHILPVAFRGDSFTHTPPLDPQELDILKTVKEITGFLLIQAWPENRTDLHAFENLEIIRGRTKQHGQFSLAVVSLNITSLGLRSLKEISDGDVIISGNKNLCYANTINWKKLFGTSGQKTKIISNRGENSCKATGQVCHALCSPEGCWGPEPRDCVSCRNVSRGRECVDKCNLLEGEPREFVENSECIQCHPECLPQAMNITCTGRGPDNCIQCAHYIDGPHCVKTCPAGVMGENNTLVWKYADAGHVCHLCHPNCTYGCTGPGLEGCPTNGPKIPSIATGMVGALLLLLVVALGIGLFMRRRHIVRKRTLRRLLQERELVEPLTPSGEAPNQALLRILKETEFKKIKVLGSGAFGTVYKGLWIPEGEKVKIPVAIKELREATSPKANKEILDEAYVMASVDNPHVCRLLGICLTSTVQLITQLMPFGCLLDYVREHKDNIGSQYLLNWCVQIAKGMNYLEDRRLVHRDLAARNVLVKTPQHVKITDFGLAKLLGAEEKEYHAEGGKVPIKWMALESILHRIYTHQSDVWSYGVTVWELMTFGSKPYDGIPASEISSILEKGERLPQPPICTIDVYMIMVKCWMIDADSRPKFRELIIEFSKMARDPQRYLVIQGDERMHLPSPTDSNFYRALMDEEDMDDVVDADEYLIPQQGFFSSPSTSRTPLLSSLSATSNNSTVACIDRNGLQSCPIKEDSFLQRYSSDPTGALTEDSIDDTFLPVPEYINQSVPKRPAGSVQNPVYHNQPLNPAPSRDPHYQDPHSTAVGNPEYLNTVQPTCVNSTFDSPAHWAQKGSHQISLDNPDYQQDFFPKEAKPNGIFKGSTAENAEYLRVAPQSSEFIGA
Activity calls are given as the source filed them.
Your response should consist of one outcome taken from true (1) for active, false (0) for inactive

Please review the entries below; each comes with its answer.
O=C(O)c1ccc2c(c1)nc(Nc1cccc(Cl)c1)c1ccncc12 [SILMITASERTIB]: false (0)
Cc1cc(-c2cc(OC(=O)c3ccccc3)ccc2Cl)cc2nnc(Nc3ccc(OCCN4CCCC4)cc3)nc12 [TG100-801]: false (0)

Problem: Status in this test for S=C(NCc1ccc2c(c1)OCO2)N1CCN(c2ncnc3c2oc2ccccc23)CC1 [AMUVATINIB] ?
Result: false (0)

Problem: Status in this test for COCCN1CCN(Cc2ccc(-c3n[nH]c4c3C(=O)c3c(NC(=O)NN5CCOCC5)cccc3-4)cc2)CC1 [RGB-286638] ?
Result: false (0)

Problem: Status in this test for Cc1cc(C(=O)Nc2cc(Oc3ccc4nc(NC(=O)C5CC5)cn4n3)ccc2C)n(C)n1 [TAK-593] ?
Result: false (0)

Problem: Status in this test for O=c1[nH]c([C@@H]2CCCN2)nc2c1oc1ccc(Cl)cc12 ?
Result: false (0)

Problem: Status in this test for Cc1c(NC(=O)OC[C@@H]2COCCN2)cn2ncnc(Nc3ccc4c(cnn4Cc4cccc(F)c4)c3)c12 [AC-480] ?
Result: true (1)

Problem: Status in this test for CCN1CCN(Cc2ccc(Nc3ncc(F)c(-c4cc(F)c5nc(C)n(C(C)C)c5c4)n3)nc2)CC1 [ABEMACICLIB] ?
Result: false (0)
